Target: T1, Human CD137 ECD (human)
T1 construct: also called 4-1BB
T1 sequence (chain, as listed by the source limits assumed): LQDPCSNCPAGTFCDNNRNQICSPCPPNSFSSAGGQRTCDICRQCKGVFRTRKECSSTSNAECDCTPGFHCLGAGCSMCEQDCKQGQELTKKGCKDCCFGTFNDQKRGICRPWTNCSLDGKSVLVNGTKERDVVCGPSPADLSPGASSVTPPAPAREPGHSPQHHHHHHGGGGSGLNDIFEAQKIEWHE
Experiment: SPR, vs parent H183/L072
measured_parameter: fold change of affinity (fold)
Give just the numeric value; fold need not be written.

Sample records with fold change of affinity:
dBBDu183H H96V / dBBDu072L (antibody, name in Kabat numbering, V domains shown, as m1, one VH change) VH: QVQLVESGGGLVQPGRSLRLSCAASGFTFSNAWMHWVRQAPGKGLEWVAQIKDKGNAYAAYYAPSVKGRFTISRDDSKNSIYLQMNSLKTEDTAVYYCHYVVYASASTVLPAFGVDAWGQGTTVTVSS VL: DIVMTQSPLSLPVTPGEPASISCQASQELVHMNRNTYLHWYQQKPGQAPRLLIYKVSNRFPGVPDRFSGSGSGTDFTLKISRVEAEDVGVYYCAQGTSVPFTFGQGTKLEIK	0.8
dBBDu183H A100Q / dBBDu072L (antibody, name in Kabat numbering, V domains shown, as m1, one VH change) VH: QVQLVESGGGLVQPGRSLRLSCAASGFTFSNAWMHWVRQAPGKGLEWVAQIKDKGNAYAAYYAPSVKGRFTISRDDSKNSIYLQMNSLKTEDTAVYYCHYVHYASQSTVLPAFGVDAWGQGTTVTVSS VL: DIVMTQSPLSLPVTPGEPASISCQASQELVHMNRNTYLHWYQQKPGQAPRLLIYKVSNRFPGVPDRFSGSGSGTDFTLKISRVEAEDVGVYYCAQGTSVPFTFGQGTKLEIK	0.6

Continue with the binder presented below.
Prompt: Please look up its fold change of affinity: dBBDu183H S62N / dBBDu072L (antibody, name in Kabat numbering, V domains shown, as m1, one VH change) VH: QVQLVESGGGLVQPGRSLRLSCAASGFTFSNAWMHWVRQAPGKGLEWVAQIKDKGNAYAAYYAPNVKGRFTISRDDSKNSIYLQMNSLKTEDTAVYYCHYVHYASASTVLPAFGVDAWGQGTTVTVSS VL: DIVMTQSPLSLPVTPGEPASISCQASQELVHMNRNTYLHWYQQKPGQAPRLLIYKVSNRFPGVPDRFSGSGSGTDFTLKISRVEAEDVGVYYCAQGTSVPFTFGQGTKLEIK
Response: 0.9
